- Tested on: MS2 coat protein
- procedureText: apparent KD of MS2 coat protein; designed switch direction (-1 OFF switch, 1 ON switch): -1; higher = weaker reporter binding
- testConditions: Eterna round: R95; input ligand: none
Each entry gets N if its apparent KD of MS2 coat protein stays under 30 nM, and Y if its apparent KD of MS2 coat protein is 30 nM or above.

1) GGUCUGCGAGGAUAUACAUGAGGAUCACCCAUGUGCGAGUUACUAGUGAGGUCGGUUGGUAGAAGGCGCGGACG [JL-ex3-2.09 salish99 mod] (puzzle: Exclusion 3) = Y
2) CAGGUCCGAGGAUAUAUUAUGUGAAACAUGAGGAUCACCCAUGUUAUAUGAUGGAUGUAAAUAGAAGGCGGACUUG [Mat - Exclusion 5 - JL mod - D64] (puzzle: Exclusion 5) = Y
3) AUAACAAGCUUUUUUUUCGUAGUACAUGACGCUCGAGUCACAUGAGGAUCACCCAUGUCUUCCUGUUUGAUUGUUGA [JR_SV3TOV2_Sub058] (puzzle: Sensor v3, turn-off variant 2) = Y

State whether the measured apparent KD of MS2 coat protein reaches 30 nM, counting equality as reaching it, for AGUUGUUGUUUCCGUUCUUACAUGAGGAUCACCCAUGUUUCUUGUCGUGCUCGCGUUGCUCGUCUGGCUACCUGUUG [salish99_TOv1_r3_068] (puzzle: Sensor v3, turn-off variant 1)
Y

State whether the measured apparent KD of MS2 coat protein reaches 30 nM, counting equality as reaching it, for AUGUGGGUAUGAAGGUGUAGAUAGAGCGUACGUUAUGGAACAUGAGGAUCACCCAUGUAGCUUUUUGCUCGUCUUAU [JR_SV3TOV2_Sub034] (puzzle: Sensor v3, turn-off variant 2)
Y

###

- Test system: MS2 coat protein
- procedureText: apparent KD of MS2 coat protein; designed switch direction (-1 OFF switch, 1 ON switch): -1; higher = weaker reporter binding
- testConditions: Eterna round: R95; input ligand: microRNA oligo, concentration not stated
Each entry gets criterion not met if its apparent KD of MS2 coat protein stays under 30 nM, and criterion met if its apparent KD of MS2 coat protein is 30 nM or above.

Example cases with answers are listed next.
1) UUUUUACGAGGAUAUCGUUUUUUUCACAUGAGGAUCACCCAUGUUGUUUAUGUUUCGUUUCGAGAAGGCGUUUGUU [JR_E5_Sub065] (puzzle: Exclusion 5) = criterion not met
2) GAUGAGGUAGGAUAUACGAGAAGAUAGGGUAGAUAUAUAACACAUGAGGAUCACCCAUGUAGAAGGACCAGUAG [Mat - Exclusion 2 - Mod of my Tesla design - D71] (puzzle: Exclusion 2) = criterion met
3) UUUAACAAGCCAGAUCCUCACAUGAGGAUCACCCAUGUGCUCGUCUGAUUUUGUACUAUCAUGUGAGUGAUAGUGUU [Level Boss var2-06] (puzzle: Sensor v3, turn-off variant 1) = criterion not met
4) AUUGAUGUUGAGGAUAUGCUUUUAUUUAUUAUAGCAGAAGGCGAUACAUGAGGAUCACCCAUGUUCAUGGCUUU [JR_E6_Sub097] (puzzle: Exclusion 6) = criterion not met

State whether the measured apparent KD of MS2 coat protein reaches 30 nM, counting equality as reaching it, for UAAUAGCAAGCAAGAUCCCACAUGAGGAUCACCCAUGUGCUCGUCUUAUAAGGUACUGUGACGAAAGUCACGGUACC [Sensor 3, v1 - 98] (puzzle: Sensor v3, turn-off variant 1)
criterion met
